Cited source for all entries: patent US11739100B2

Target Under Test: recombinant Vps34 (Homo sapiens, UniProt Q8NEB9)
Sequence (Q8NEB9 whole entry): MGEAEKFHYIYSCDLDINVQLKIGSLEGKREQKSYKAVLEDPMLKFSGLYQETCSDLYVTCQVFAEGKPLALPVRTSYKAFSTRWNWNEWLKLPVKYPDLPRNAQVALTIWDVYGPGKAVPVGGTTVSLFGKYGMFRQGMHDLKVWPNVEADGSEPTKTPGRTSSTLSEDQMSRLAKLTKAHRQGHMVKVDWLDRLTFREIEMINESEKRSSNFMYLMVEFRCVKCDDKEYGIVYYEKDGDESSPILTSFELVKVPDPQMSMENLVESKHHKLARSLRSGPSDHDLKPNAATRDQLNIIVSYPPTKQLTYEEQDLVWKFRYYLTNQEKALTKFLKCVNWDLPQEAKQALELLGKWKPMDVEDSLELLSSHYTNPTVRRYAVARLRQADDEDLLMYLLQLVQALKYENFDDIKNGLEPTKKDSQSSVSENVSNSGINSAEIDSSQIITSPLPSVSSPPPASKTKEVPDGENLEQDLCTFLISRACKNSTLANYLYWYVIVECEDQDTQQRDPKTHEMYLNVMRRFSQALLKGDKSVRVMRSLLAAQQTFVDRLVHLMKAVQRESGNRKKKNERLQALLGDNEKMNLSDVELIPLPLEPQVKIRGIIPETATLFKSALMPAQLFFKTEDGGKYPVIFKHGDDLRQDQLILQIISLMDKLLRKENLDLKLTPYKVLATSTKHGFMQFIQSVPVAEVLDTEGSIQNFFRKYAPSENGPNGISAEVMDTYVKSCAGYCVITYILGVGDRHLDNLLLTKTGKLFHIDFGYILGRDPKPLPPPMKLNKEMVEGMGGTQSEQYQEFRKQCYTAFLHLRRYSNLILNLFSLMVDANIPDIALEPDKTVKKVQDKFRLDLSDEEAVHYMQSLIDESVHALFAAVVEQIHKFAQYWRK
Assay Summary: Phosphorylation of phosphatidylinositol (PI) by Vps34 in vitro, ADP detected by TR-FRET (HTRF Transcreener ADP)
Test Parameters: 10 μM ATP, 55 μg/ml PI, approximately 3 nM Vps34, 1 hour at ambient temperature; absolute IC50, mean of two independent experiments; read-out: IC50 activity range
Recorded IC50, one value per entry.

// worked examples, IC50 included
{"Smiles Text": "C[C@@H]1COCCN1c1nc2n(c(=O)c1F)CC[C@@H](C(F)(F)F)N2CC(=O)N1CCCCC1", "Assay Metric": "IC50", "Result": "< 10 nM"}
{"Smiles Text": "CON(C)C(=O)CN1c2nc(N3CCOC[C@H]3C)c(F)c(=O)n2CC[C@H]1C(F)(F)F", "Assay Metric": "IC50", "Result": "< 10 nM"}

Enquiry: Can you share its IC50? I mean this molecule: CC(=O)N1c2nc(N3CCOC[C@H]3C)cc(=O)n2CC[C@H]1C(F)(F)F
Return: > 100 nM

---

Target Under Test: recombinant Vps34 (Homo sapiens)
Assay Summary: Phosphorylation of phosphatidylinositol (PI) by Vps34 in vitro, ADP detected by TR-FRET (HTRF Transcreener ADP)
Test Parameters: 10 μM ATP, 55 μg/ml PI, approximately 3 nM Vps34, 1 hour at ambient temperature; absolute IC50, mean of two independent experiments; read-out: IC50 activity range
pIC50: −log10 of the molar value.
Assay Metric: pIC50

// worked examples, pIC50 included
{"Smiles Text": "C[C@@H]1COCCN1c1nc2n(c(=O)c1F)CC[C@@H](C(F)(F)F)N2CC(=O)c1ccccn1", "Assay Metric": "pIC50", "Result": "> 8.00"}
{"Smiles Text": "C[C@@H]1COCCN1c1cc(=O)n2c(n1)N(CC(=O)c1ccccn1)CC[C@@H]2C(F)(F)F", "Assay Metric": "pIC50", "Result": "> 8.00"}
{"Smiles Text": "C[C@@H]1COCCN1c1cc(=O)n2c(n1)N(Cc1cnco1)[C@H](C(F)(F)F)CC2", "Assay Metric": "pIC50", "Result": "> 8.00"}
{"Smiles Text": "CNC(=O)CN1c2nc(N3CCOC[C@H]3C)cc(=O)n2CC[C@H]1C(F)(F)F", "Assay Metric": "pIC50", "Result": "7.00 to 8.00"}

Pending molecule:
Enquiry: Can you share its pIC50? I mean this molecule: C[C@@H]1COCCN1c1cc(=O)n2c(n1)N(CC(=O)C1CCOCC1)[C@](C)(C(F)(F)F)C2
Return: > 8.00

---

Recorded IC50, one value per entry.
Target Under Test: recombinant Vps34 (Homo sapiens)
Assay Summary: Phosphorylation of phosphatidylinositol (PI) by Vps34 in vitro, ADP detected by TR-FRET (HTRF Transcreener ADP)
Test Parameters: 10 μM ATP, 55 μg/ml PI, approximately 3 nM Vps34, 1 hour at ambient temperature; absolute IC50, mean of two independent experiments; read-out: IC50 activity range

// worked examples, IC50 included
{"Compound": "CCC(=O)CN1c2nc(N3CCOC[C@H]3C)cc(=O)n2CC[C@H]1C(F)(F)F", "Result": "< 10 nM"}
{"Compound": "C[C@@H]1COCCN1c1cc(=O)n2c(n1)N(Cc1nnc(C3CC3)o1)[C@H](C(F)(F)F)CC2", "Result": "< 10 nM"}

Enquiry: Can you share its IC50? I mean this compound: O=c1cc(N2CCOC(CF)C2)nc2n1CC[C@@H](C(F)(F)F)N2Cc1ccccc1 (single isomer, unassigned) [Example 194]
Return: > 100 nM

---

Target Under Test: recombinant Vps34 (Homo sapiens)
Assay Summary: Phosphorylation of phosphatidylinositol (PI) by Vps34 in vitro, ADP detected by TR-FRET (HTRF Transcreener ADP)
Test Parameters: 10 μM ATP, 55 μg/ml PI, approximately 3 nM Vps34, 1 hour at ambient temperature; absolute IC50, mean of two independent experiments; read-out: IC50 activity range
pIC50: −log10 of the molar value.
Recorded pIC50, one value per entry.

// worked examples, pIC50 included
{"Smiles Text": "COc1cc(N2CC[C@H](C(F)(F)F)n3c2nc(N2CCOC[C@H]2C)c(F)c3=O)ccn1", "Assay Metric": "pIC50", "Result": "> 8.00"}
{"Smiles Text": "C[C@@H]1COCCN1c1cc(=O)n2c(n1)N(Cc1ncco1)CC[C@@H]2C(F)(F)F", "Assay Metric": "pIC50", "Result": "7.00 to 8.00"}
{"Smiles Text": "Cc1cc(CN2c3nc(N4[C@H](C)COC[C@H]4C)cc(=O)n3CC[C@H]2C(F)(F)F)on1", "Assay Metric": "pIC50", "Result": "> 8.00"}
{"Smiles Text": "C[C@@H]1COCCN1c1cc(=O)n2c(n1)N(CC(=O)C1CC1)[C@](C)(C(F)(F)F)C2", "Assay Metric": "pIC50", "Result": "> 8.00"}
{"Smiles Text": "O=C(CN1c2nc(N3CC4CCC(C3)O4)cc(=O)n2CC[C@H]1C(F)(F)F)c1ccccn1", "Assay Metric": "pIC50", "Result": "7.00 to 8.00"}

Pending molecule:
Enquiry: Can you share its pIC50? I mean this molecule: Cc1nocc1CN1c2nc(N3CCOC[C@H]3C)cc(=O)n2CC[C@H]1C(F)(F)F
Return: > 8.00

---

Target Under Test: recombinant Vps34 (Homo sapiens, UniProt Q8NEB9)
Assay Summary: Phosphorylation of phosphatidylinositol (PI) by Vps34 in vitro, ADP detected by TR-FRET (HTRF Transcreener ADP)
Test Parameters: 10 μM ATP, 55 μg/ml PI, approximately 3 nM Vps34, 1 hour at ambient temperature; absolute IC50, mean of two independent experiments; read-out: IC50 activity range
Recorded IC50, one value per entry.

// worked examples, IC50 included
{"Molecule": "C[C@H](O)CN1c2nc(N3CCOC[C@H]3C)cc(=O)n2CC[C@H]1C(F)(F)F [Example 205]", "Assay Metric": "IC50", "Result": "< 10 nM"}
{"Molecule": "C[C@@H]1COC[C@@H](C)N1c1cc(=O)n2c(n1)N(c1ccnc(Cl)c1)[C@H](C(F)(F)F)CC2 [Example 159]", "Assay Metric": "IC50", "Result": "< 10 nM"}
{"Molecule": "C[C@@H]1COC[C@@H](C)N1c1cc(=O)n2c(n1)N(Cc1ccnn1C(F)F)[C@H](C(F)(F)F)CC2 [Example 154]", "Assay Metric": "IC50", "Result": "< 10 nM"}
{"Molecule": "COCCN1c2nc(N3CCOC[C@H]3C)c(F)c(=O)n2CC[C@H]1C(F)(F)F [Example 20]", "Assay Metric": "IC50", "Result": "< 10 nM"}
{"Molecule": "C[C@@H]1COCCN1c1cc(=O)n2c(n1)N(Cc1cocn1)[C@](C)(C(F)(F)F)C2 [Example 183]", "Assay Metric": "IC50", "Result": "< 10 nM"}
{"Molecule": "CC(C)c1nc(CN2c3nc(N4CCOC[C@H]4C)cc(=O)n3CC[C@H]2C(F)(F)F)no1 [Example 201]", "Assay Metric": "IC50", "Result": "< 10 nM"}

Enquiry: Can you share its IC50? I mean this molecule: C[C@@H]1COCCN1c1nc2n(c(=O)c1F)C[C@@](C)(C(F)(F)F)N2CC(=O)C1CC1 [Example 187]
Return: < 10 nM

Enquiry: Here is the next molecule: O=c1cc(N2CC3CCC(C2)O3)nc2n1CC[C@@H](C(F)(F)F)N2Cc1ccc(Cl)s1 [Example 162]
Return: 10 to 100 nM

Enquiry: Here is the next molecule: CC(=O)CN1CC[C@H](C(F)(F)F)n2c1nc(N1CCOC[C@H]1C)cc2=O [Example 145]
Return: 10 to 100 nM

Enquiry: Here is the next molecule: C[C@@H]1COCCN1c1cc(=O)n2c(n1)N(CC(=O)C1CCOC1)[C@H](C(F)(F)F)CC2 (stereo partly drawn) [Example 269]
Return: 10 to 100 nM

Enquiry: Here is the next molecule: Cc1nocc1CN1c2nc(N3CCOC[C@H]3C)c(F)c(=O)n2CC[C@H]1C(F)(F)F [Example 62]
Return: < 10 nM

---

Target Under Test: recombinant Vps34 (Homo sapiens)
Assay Summary: Phosphorylation of phosphatidylinositol (PI) by Vps34 in vitro, ADP detected by TR-FRET (HTRF Transcreener ADP)
Test Parameters: 10 μM ATP, 55 μg/ml PI, approximately 3 nM Vps34, 1 hour at ambient temperature; absolute IC50, mean of two independent experiments; read-out: IC50 activity range
pIC50: −log10 of the molar value.
Recorded pIC50, one value per entry.

{"Compound": "C[C@H](O)CN1c2nc(N3CCOC[C@H]3C)c(F)c(=O)n2CC[C@H]1C(F)(F)F", "Assay Metric": "pIC50", "Result": "> 8.00"}

Enquiry: // lookup pIC50 | system=recombinant Vps34 (Homo sapiens) | key= CC1CN(c2cc(=O)n3c(n2)N(Cc2ccccc2)[C@H](C(F)(F)F)CC3)CCO1 (single isomer, unassigned)
Return: 7.00 to 8.00

Enquiry: Here is the next compound: C[C@@H]1COCCN1c1cc(=O)n2c(n1)N(Cc1ccncc1)[C@H](C(F)(F)F)CC2
Return: 7.00 to 8.00

Enquiry: Here is the next compound: C[C@@H]1COCCN1c1nc2n(c(=O)c1F)CC[C@@H](C(F)(F)F)N2Cc1cncc(F)c1
Return: > 8.00
